test: basal RPMI8226 mitochondrial membrane potential changes, profiling panel, cell-based, JC-1 fluorescence, 24 h, 100 nL compound (AID 1169); settings: RPMI8226 myeloma, JC-1 mitochondrial potential fluorescence, higher = more signal; further: test concentration not given here
Binary call on z-score: Fulfilled from -0.3 upward, Not fulfilled beneath that.

Worked examples, 10 compounds total:
compound=COc1ccc([Si](C)(C)[C@H]2[C@H](CC(=O)N3CCC[C@H]3CO)O[C@@]3(C(=O)N(Cc4ccc(N5CCC5=O)cc4)c4ccccc43)[C@@H]2C)cc1 class_label="Not fulfilled"
compound=[N-]=[N+]=NCc1ccccc1[C@@H]1OC(c2ccc(OCCCO)cc2)=N[C@]1(Cc1ccccc1N=[N+]=[N-])C(=O)NCCN1CCOCC1 class_label="Not fulfilled"
compound=CCCCC(=O)N(CCN1CCOCC1)[C@@H]1CC(C(=O)NCCO)=C[C@H](Oc2c(I)cc(CO)cc2OC)[C@H]1O class_label=Fulfilled
compound="C=CCC(OC(C)=O)[C@@H]1[C@@H](N(Cc2cccc3ccccc23)C(=O)Cc2ccc(F)cc2)c2cc(OCCCO)ccc2N1C(=O)c1ccc(-c2ccccc2)cc1 (stereo partly drawn)" class_label=Fulfilled
compound=COCCOC(=O)N1C(=O)[C@@]2(c3cc(C#CC4=CCCCC4)ccc31)[C@H](c1ccc(O)cc1)N1[C@H](c3ccccc3)[C@H](c3ccccc3)OC(=O)[C@H]1[C@@H]2C(=O)NC[C@H](O)c1ccccc1 class_label="Not fulfilled"
compound="O=C1OCC=C[C@H]2OC34C=CCN(c5ccc6ccccc6c5)C(=O)[C@H]3N(CCCCCO)C(=O)[C@@H]4[C@@H]12 (stereo partly drawn)" class_label=Fulfilled
compound=Cc1ccc([C@H]2C(C(=O)O)=C[C@@H](C(C)(C)C)N2S(=O)(=O)c2ccc(C)cc2)cc1 class_label=Fulfilled
compound=CC(C)CNC(=O)[C@@H]1c2ccccc2C(=O)N(C2CCCCC2)[C@H]1c1ccc(CO)cc1 class_label=Fulfilled
compound="CCCCCCCCCCC(O)C1C=CC2C(=O)N(c3ccccc3)C(=O)C2N1Nc1ccccc1F (stereo not drawn)" class_label="Not fulfilled"
compound="C=CCC(OC(C)=O)[C@@H]1[C@@H](N(Cc2cccc3ccccc23)C(=O)c2cccc3ccccc23)c2cc(OCCCO)ccc2N1C(=O)c1ccc2ccccc2c1 (stereo partly drawn)" class_label=Fulfilled

In: Is reported z-score greater than or equal to -0.3 here: C=CCOC(=O)[C@H]1[C@@H]2C(=O)O[C@@H](c3ccccc3)[C@@H](c3ccccc3)N2[C@@H](c2ccc(OCCOC(=O)[C@H]3C[C@H]4C(=O)N[C@@H](CCCCNC(C)=O)C(=O)N4[C@H]3c3cccc(OCCO)c3)cc2)[C@]12C(=O)Nc1ccc(I)cc12
Out: Not fulfilled

In: Is reported z-score greater than or equal to -0.3 here: C=CC1c2cc(O)c(OC)cc2CCN1Cc1ccc([N+](=O)[O-])o1 (stereo not drawn)
Out: Fulfilled

In: Is reported z-score greater than or equal to -0.3 here: C=C(CCCC)C(=O)CC[C@@H](OC(=O)c1cccnc1)c1ccc(OCCO)cc1
Out: Not fulfilled

In: Is reported z-score greater than or equal to -0.3 here: COc1cc(NN2C(C(O)c3ccccc3)C=CC3C(=O)N(C)C(=O)C32)cc(OC)c1OC (stereo not drawn)
Out: Not fulfilled

In: Is reported z-score greater than or equal to -0.3 here: NCCCCCNC(=O)[C@@H]1C[C@@H]2C(=O)N3CCC[C@H]3C(=O)N2[C@@H]1c1ccc(O)cc1
Out: Fulfilled

In: Is reported z-score greater than or equal to -0.3 here: CC(C)OC(=O)CC(=O)CC(O)c1ccc([N+](=O)[O-])cc1 (stereo not drawn)
Out: Fulfilled

In: Is reported z-score greater than or equal to -0.3 here: CCCCC(=C=CC[C@H](O)c1ccc(OCCO)cc1)C[C@H](O)COCc1ccccc1
Out: Fulfilled

In: Is reported z-score greater than or equal to -0.3 here: CC(C)(C)OC(=O)CC[C@]12N=C(c3ccc(OCCCO)cc3)O[C@H]1c1ccccc1N(Cc1ccccc1)C2=O
Out: Not fulfilled

In: Is reported z-score greater than or equal to -0.3 here: CN(C)CCCC[C@@H]1NC(=O)[C@@H]2C[C@H](C(=O)O)[C@H](c3cccc(OCCO)c3)N2C1=O
Out: Not fulfilled

In: Is reported z-score greater than or equal to -0.3 here: [N-]=[N+]=NCc1ccccc1C[C@]1(C(=O)N2CCOCC2)COC(c2ccc(OCCCO)cc2)=N1
Out: Not fulfilled

In: Is reported z-score greater than or equal to -0.3 here: CC(=O)NCCCC[C@@H]1NC(=O)[C@@H]2C[C@H](C(=O)NCCCCCCN)[C@H](c3cccc(OCCO)c3)N2C1=O
Out: Fulfilled
